Data provenance: patent US8754116B2

# Tgt: HCV NS3/4A protease (Hepatitis C virus genotype 1a)
# Sequence (P27958 1027-1657): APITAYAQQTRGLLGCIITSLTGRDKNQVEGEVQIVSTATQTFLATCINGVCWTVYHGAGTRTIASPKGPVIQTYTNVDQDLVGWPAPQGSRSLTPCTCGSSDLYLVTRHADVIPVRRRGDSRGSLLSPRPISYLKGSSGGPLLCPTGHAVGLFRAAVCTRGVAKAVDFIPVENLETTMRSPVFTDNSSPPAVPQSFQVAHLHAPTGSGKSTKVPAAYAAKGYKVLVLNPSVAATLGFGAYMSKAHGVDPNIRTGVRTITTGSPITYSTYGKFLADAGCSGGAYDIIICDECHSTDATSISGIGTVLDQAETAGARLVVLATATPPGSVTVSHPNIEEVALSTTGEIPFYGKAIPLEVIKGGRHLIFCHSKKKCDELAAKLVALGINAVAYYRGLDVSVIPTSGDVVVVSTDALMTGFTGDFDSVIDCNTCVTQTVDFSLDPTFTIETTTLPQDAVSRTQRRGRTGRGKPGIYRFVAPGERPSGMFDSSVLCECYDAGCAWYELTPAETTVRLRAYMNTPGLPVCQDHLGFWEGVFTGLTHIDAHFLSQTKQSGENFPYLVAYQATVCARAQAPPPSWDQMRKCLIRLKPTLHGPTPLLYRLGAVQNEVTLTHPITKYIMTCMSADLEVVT
# Protocol Description: Inhibition assay (enzymatic assay, depsipeptide substrate hydrolysis); also: full-length NS3 protease 1 nM, 25 µM NS4A cofactor, 0.5 µM substrate
# Type: biochemical

Compound	Ki (nM)
CN1CCCC/C=C\[C@@H]2C[C@@]2(C(=O)NS(=O)(=O)C2CC2)NC(=O)[C@@H]2C[C@@H](n3nnc(-c4ccccc4)n3)C[C@H]2C1=O [Compound 10]	30
